# target.or.system: T1, soluble monomeric human MUC16, truncated format encompassing the last five SEA domains of Mucin-16 (human)
# T1 construct: also called hMUC16.mmh; MUC16 "nub"
# T1 chain: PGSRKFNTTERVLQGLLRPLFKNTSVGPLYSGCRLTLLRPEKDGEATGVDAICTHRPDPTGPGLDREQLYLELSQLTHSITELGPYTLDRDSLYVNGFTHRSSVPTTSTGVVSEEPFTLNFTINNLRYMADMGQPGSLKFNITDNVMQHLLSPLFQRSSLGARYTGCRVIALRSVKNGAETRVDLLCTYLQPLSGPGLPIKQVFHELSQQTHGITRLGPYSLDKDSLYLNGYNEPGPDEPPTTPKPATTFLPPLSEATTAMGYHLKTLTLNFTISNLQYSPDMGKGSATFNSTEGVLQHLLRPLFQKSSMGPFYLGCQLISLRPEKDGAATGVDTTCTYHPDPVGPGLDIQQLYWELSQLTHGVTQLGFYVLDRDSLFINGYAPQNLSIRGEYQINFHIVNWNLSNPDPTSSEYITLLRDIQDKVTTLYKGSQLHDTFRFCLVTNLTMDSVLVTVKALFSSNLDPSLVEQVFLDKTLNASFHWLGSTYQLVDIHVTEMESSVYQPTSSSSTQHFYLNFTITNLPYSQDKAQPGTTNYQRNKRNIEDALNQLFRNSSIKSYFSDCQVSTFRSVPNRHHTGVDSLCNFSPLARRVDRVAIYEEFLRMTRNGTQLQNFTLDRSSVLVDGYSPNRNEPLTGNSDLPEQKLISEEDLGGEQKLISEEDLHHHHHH
# procedure.details: SPR Biacore, antibody captured, soluble monomeric hMUC16.mmh injected, 25C
Please provide measured t1/2 for the entries that follow.
One number for each entry, in min.

binder	unit	t1/2
H1H8755P (antibody, human IgG1, V domains shown, Human IgG1 (H1H)) VH: EVQLVESGGGLVQPGRSLRLSCAASGFTFNDYAMHWVRQSPGKGLEWVSGIDWNGGSIDYADSVKGRFTISRDTAKNSLYLQMNSLKVEDTALYYCAKDIGHWNYIGGMDVWGQGTTVTVSS VL: DIQMTQSPSSLSASVGDRVTITCRASQSINIYLNWYQQKPGKAPKFLIYAASSLQTGVPSRFSGSGSGTDFTLTISSLEPEDFATYYCQHSYSTPPITFGQGTRLEIK	min	77

Attention now shifts to the item below.
Entry H1H8794P (antibody, V domains shown, Human IgG1 (H1H)) VH: QVQLVESGGGLVKPGGSLRLSCAASGFTFRDYSMSWIRQAPGKGLEWVSYVTFFNSAIYYADSVKGRFTISRDNAKNSLYLQMNSLRAEDTAVYYCAREREPIVGGFDYWGQGTLVTVSS VL: DIQMTQSPSSLSASVGDRVTITCRASQSINSYLNWYQQKPGKAPKLLIYAASSLQGGVPSRFSGGGSGTDFTLTITSLQPEDFATFYCQQSYSSPPITFGQGTRLEIK has what t1/2?
41
